experiment: Retention time of the compound in mouse plasma at 400 ug/ml after 3 hrs by RP-HPLC method; type: ADME, cell-free
*1 amine or outer side, *2 acyl side, *3 side chain or, on linkers, in order; H or OH if unused. Where a SMILES comes first, the peptide text is derived from it. [ ]: non-standard residue; d: D form. X1 = C=CC(C)(C)n1cc(C[C@@H](N[*:1])C(=O)[*:2])c2ccccc21; dTrp(1-Bu) = CCCCn1cc(C[C@@H](N)C(=O)O)c2ccccc21; dNMeF = CN[C@H](Cc1ccccc1)C(=O)O
value.kind: Retention_time (min)

C=CC(C)(C)n1cc(C[C@@H](NC(=O)[C@H](Cc2ccccc2)NC(=O)[C@@H](Cc2c[nH]c3ccccc23)NC(=O)[C@@H](Cc2ccccc2)NC)C(=O)N[C@@H](CC(C)C)C(N)=O)c2ccccc21 (H-[dNMeF][dW]F[X1]L-NH2); 24.89
CCCCn1cc(C[C@@H](NC(=O)[C@H](Cc2ccccc2)NC(=O)[C@@H](Cc2cn(CCCC)c3ccccc23)NC(=O)[C@@H](Cc2ccccc2)NC)C(=O)N[C@@H](CC(C)C)C(N)=O)c2ccccc21 (H-[dNMeF][dTrp(1-Bu)]F[dTrp(1-Bu)]L-NH2); 27.93
CCCCn1cc(C[C@@H](NC(=O)[C@H](Cc2ccccc2)NC(=O)[C@@H](Cc2c[nH]c3ccccc23)NC(=O)[C@@H](Cc2ccccc2)NC)C(=O)N[C@@H](CC(C)C)C(=O)O)c2ccccc21 (H-[dNMeF][dW]F[dTrp(1-Bu)]L-OH); 25.3
CCCCn1cc(C[C@@H](NC(=O)[C@H](Cc2ccccc2)NC(=O)[C@@H](Cc2c[nH]c3ccccc23)NC(=O)[C@@H](Cc2ccccc2)NC)C(=O)N[C@@H](CC(C)C)C(N)=O)c2ccccc21 (H-[dNMeF][dW]F[dTrp(1-Bu)]L-NH2); 25.29

###

In this section, each of the molecules is paired with its reported Retention_time.
test: Retention time of the compound in mouse plasma at 400 ug/ml measured immediately after compound addition by RP-HPLC method; format: ADME, cell-free
*1 amine or outer side, *2 acyl side, *3 side chain or, on linkers, in order; H or OH if unused. Where a SMILES comes first, the peptide text is derived from it. [ ]: non-standard residue; d: D form. X1 = C=CC(C)(C)n1cc(C[C@@H](N[*:1])C(=O)[*:2])c2ccccc21; dTrp(1-Bu) = CCCCn1cc(C[C@@H](N)C(=O)O)c2ccccc21; dNMeF = CN[C@H](Cc1ccccc1)C(=O)O
value.kind: Retention_time (min)

CCCCn1cc(C[C@@H](NC(=O)[C@H](Cc2ccccc2)NC(=O)[C@@H](Cc2c[nH]c3ccccc23)NC(=O)[C@@H](Cc2ccccc2)NC)C(=O)N[C@@H](CC(C)C)C(N)=O)c2ccccc21 (H-[dNMeF][dW]F[dTrp(1-Bu)]L-NH2); 25
CCCCn1cc(C[C@@H](NC(=O)[C@H](Cc2ccccc2)NC(=O)[C@@H](Cc2c[nH]c3ccccc23)NC(=O)[C@@H](Cc2ccccc2)NC)C(=O)N[C@@H](CC(C)C)C(=O)O)c2ccccc21 (H-[dNMeF][dW]F[dTrp(1-Bu)]L-OH); 25.36
C=CC(C)(C)n1cc(C[C@@H](NC(=O)[C@H](Cc2ccccc2)NC(=O)[C@@H](Cc2c[nH]c3ccccc23)NC(=O)[C@@H](Cc2ccccc2)NC)C(=O)N[C@@H](CC(C)C)C(N)=O)c2ccccc21 (H-[dNMeF][dW]F[X1]L-NH2); 24.62
CCCCn1cc(C[C@@H](NC(=O)[C@H](Cc2ccccc2)NC(=O)[C@@H](Cc2cn(CCCC)c3ccccc23)NC(=O)[C@@H](Cc2ccccc2)NC)C(=O)N[C@@H](CC(C)C)C(N)=O)c2ccccc21 (H-[dNMeF][dTrp(1-Bu)]F[dTrp(1-Bu)]L-NH2); 27.53

Reference source: ChEMBL document CHEMBL4138117
